# Tested on: HARA (human lung squamous cell carcinoma) cells
# assayComment: Cell proliferation assay (CellTiter-Glo), HARA
# Format: cell-based
# runParameters: Homo sapiens, 144 h; 6 days, CellTiter-Glo; read-out: HARA GI50
Catalogue of compounds with associated GI50

compound	GI50
N#Cc1ccc(N2CCN(C(=O)c3cccc(Cc4n[nH]c(=O)c5c(F)c(F)ccc45)c3)CC2)nc1	0.1 to 1 µM
C#CC(C)Oc1ccc2c(=O)[nH]nc(Cc3ccc(F)c(C(=O)N4CCN(c5ccc(C#N)cn5)CC4)c3)c2c1 (stereo not shown)	1 to 5 µM
O=C(c1cc(Cc2n[nH]c(=O)c3ccc(OC4CCC4)cc23)ccc1F)N1CCN(c2ccc(C(F)(F)F)nc2)CC1	> 5 µM
COc1cc2c(Cc3ccc(F)c(C(=O)N4CCN(c5ccc(C#N)cn5)CC4)c3)n[nH]c(=O)c2cn1	> 5 µM
N#Cc1ccc(N2CCN(C(=O)c3cc(Cc4n[nH]c(=O)c5c(C(F)(F)F)cc(OC6CCC6)cc45)ccc3F)CC2)nc1	1 to 5 µM
N#Cc1ccc(N2CCN(C(=O)c3cccc(Cc4n[nH]c(=O)c5ccc(OC6CCC6)cc45)n3)CC2)nc1	> 5 µM
O=C(c1cc(Cc2n[nH]c(=O)c3ccc(OC4CCC4)cc23)ccc1F)N1CCN(c2ccc(C(F)(F)F)nn2)CC1	> 5 µM
